# Assayed target: human RIP1 kinase domain (2-375) (Homo sapiens (Human), UniProt Q13546)
# Sequence (Q13546 2-375): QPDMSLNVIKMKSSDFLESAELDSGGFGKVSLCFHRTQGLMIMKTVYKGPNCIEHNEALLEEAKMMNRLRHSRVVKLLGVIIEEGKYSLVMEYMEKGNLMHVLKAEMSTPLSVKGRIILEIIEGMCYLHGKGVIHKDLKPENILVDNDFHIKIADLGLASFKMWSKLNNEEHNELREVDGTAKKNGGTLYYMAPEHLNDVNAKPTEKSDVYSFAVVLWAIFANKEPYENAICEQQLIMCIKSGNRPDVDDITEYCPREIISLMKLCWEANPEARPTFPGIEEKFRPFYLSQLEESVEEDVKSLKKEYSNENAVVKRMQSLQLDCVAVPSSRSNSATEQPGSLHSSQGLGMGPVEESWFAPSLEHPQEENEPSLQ
# Experiment: biochemical
# Assay type: biochemical
# Condition summary: tight-binding apparent inhibition constant; human RIP1 kinase domain (2-375) 50 nM, 50 uM ATP, 2 hours; read-out: Ki
pKi: −log10 of the molar value.
If the reported pKi equals or exceeds 7, assign YES. If not, assign NO.

Some entries whose results are on file:
| Compound | Label |
| --- | --- |
| CCc1cc2n(n1)CC[C@H](NC(=O)c1ncn(Cc3ccccc3F)n1)C(=O)N2C | YES |
| Cc1ccccc1Cn1cnc(C(=O)N[C@H]2CCn3nccc3N(C)C2=O)n1 | YES |
| CN1C(=O)[C@@H](NC(=O)c2ncn(Cc3cc(F)ccc3F)n2)CCn2ccnc21 | YES |

Could you verify whether the entry CC[C@H]1C[C@@H](Cn2cnc(C(=O)N[C@H]3CCn4nc(C)cc4N(C)C3=O)n2)C1 shows pKi of no less than 7?
YES

Threshold query (pKi >= 7) on CCC1CCc2nc(C(=O)N[C@H]3CCn4nccc4N(C)C3=O)nn21 (stereo partly shown)
NO

Check the entry Cc1cc2n(n1)CC[C@H](NC(=O)c1ncn(CC3CC(C)(C)C3)n1)C(=O)N2C : does pKi equal or exceed 7?
YES

Textbook exercise: given the entry Cc1cc2n(n1)CC[C@H](NC(=O)c1cc3c(cn1)COC31CCCOC1)C(=O)N2C (stereo partly shown) , state whether its pKi is greater than or equal to 7.
NO

Determine whether measured pKi meets or exceeds 7 for CN1C(=O)[C@@H](NC(=O)c2nc3cccc(-c4ccccc4)n3n2)CCn2nccc21
YES
